These entries and their values trace back to patent US8871760B2.

Target: human P2X7 (UniProt Q99572)
Sequence (Q99572 1-595): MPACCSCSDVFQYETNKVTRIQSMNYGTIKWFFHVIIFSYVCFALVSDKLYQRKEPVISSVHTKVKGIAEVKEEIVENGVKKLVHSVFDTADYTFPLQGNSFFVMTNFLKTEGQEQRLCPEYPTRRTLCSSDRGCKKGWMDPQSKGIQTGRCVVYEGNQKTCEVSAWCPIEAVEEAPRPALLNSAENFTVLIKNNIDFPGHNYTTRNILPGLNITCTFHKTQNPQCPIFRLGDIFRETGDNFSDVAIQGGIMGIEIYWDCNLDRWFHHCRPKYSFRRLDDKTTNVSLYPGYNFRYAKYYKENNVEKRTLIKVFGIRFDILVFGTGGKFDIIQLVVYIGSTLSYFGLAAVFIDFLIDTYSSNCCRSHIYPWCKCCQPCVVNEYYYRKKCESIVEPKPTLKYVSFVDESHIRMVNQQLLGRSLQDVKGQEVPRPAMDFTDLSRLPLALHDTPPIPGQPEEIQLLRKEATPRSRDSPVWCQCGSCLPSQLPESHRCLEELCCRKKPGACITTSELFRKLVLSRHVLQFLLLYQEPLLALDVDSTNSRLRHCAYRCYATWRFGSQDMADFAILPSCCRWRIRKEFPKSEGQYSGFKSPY
Assay: Intracellular Calcium Flux (FLIPR) Assay
Type: cell-based
property.name: pIC50
Keep the answer to the number alone.

Some solved entries appear below for comparison.
input: Form field: reported pIC50 of Cc1cc(Cl)c(OCCO)cc1Nc1nnc2n1[C@H](c1ccc(F)cc1)COC2
output: 7.59

input: Form field: reported pIC50 of COC[C@H](O)Cn1nc(-c2ccc(C)c(Nc3nnc4n3[C@H](c3ccc(F)cc3)COC4)c2)cc1C
output: 7.56

input: Form field: reported pIC50 of Cc1cc(Cl)c(OCCO)cc1Nc1nnc2n1C(c1cccc(F)c1)COC2 (stereo not shown)
output: 7.13

input: Form field: reported pIC50 of CCc1c(Nc2nnc3n2[C@@H](c2ccc(F)cc2)CCC3)ccc2ncccc12
output: 5.17

---
input: Form field: reported pIC50 of Cc1ccc(-c2ccnn(CCO)c2=O)cc1Nc1nnc2n1[C@H](c1ccc(F)cc1)COC2
output: 8.09

input: Form field: reported pIC50 of Cc1cc(Cl)c(OCCO)cc1Nc1nnc2n1C(c1ccc(F)cc1)CCC2 (stereo not shown)
output: 6.99

input: Form field: reported pIC50 of Cc1ccc2ncccc2c1Nc1nnc2n1[C@H](c1ccc(F)cc1)COC2
output: 7.87

input: Form field: reported pIC50 of Cc1ccc2c(Nc3nnc4n3[C@H](c3ccc(F)cc3)COC4)cccc2n1
output: 6.76

input: Form field: reported pIC50 of Cc1cc(Cl)c(-n2ncccc2=O)cc1Nc1nnc2n1[C@H](c1ccc(F)cc1)COC2
output: 7.17

input: Form field: reported pIC50 of Cc1ccc(-c2ccnn(C)c2=O)cc1Nc1nnc2n1[C@H](c1ccc(F)cc1)COC2
output: 7.865

input: Form field: reported pIC50 of Cc1ccc(-c2cc(C)n(CCO)n2)cc1Nc1nnc2n1[C@H](c1ccc(F)cc1)COC2
output: 7.735

input: Form field: reported pIC50 of COc1cc(Br)c(Nc2nnc3n2C(c2ccc(F)cc2)CN(C)C3)cc1OC (stereo not shown)
output: 7.32

input: Form field: reported pIC50 of Cc1cc(Cl)c(OCCO)cc1Nc1nnc2n1[C@H](c1cccc(F)c1)COC2
output: 7.6

input: Form field: reported pIC50 of O=c1[nH]ncc2c(Nc3nnc4n3[C@H](c3ccc(F)cc3)COC4)cccc12
output: 6.135
